TEST METHOD NOTES: Cytotoxicity against human Non-small cell lung carcinoma cells
Format: functional
CONDITION SET: read-out: pLC50 (the source's name) (converted)
READOUT: CC50 (µM)
All answers are understood in µM, so give the number only.

Entry `O=C1Nc2ccc(Cl)cc2/C1=C\c1cccc(/C=C2/C(=O)Nc3ccc(Cl)cc32)n1` : reported CC50 = ? 20

Entry `O=C1Nc2ccc(F)cc2/C1=C\c1cccc(/C=C2/C(=O)Nc3ccc(F)cc32)n1` : reported CC50 = ? 79.4

Entry `COc1ccc2c(c1)/C(=C\c1cccc(/C=C3/C(=O)N(C)c4ccc(OC)cc43)n1)C(=O)N2C` : reported CC50 = ? 74.1

Entry `COc1ccc2c(c1)/C(=C\c1cccc(/C=C3/C(=O)Nc4ccc(OC)cc43)n1)C(=O)N2` : reported CC50 = ? 43.7

Entry `O=C1Nc2ccc(Br)cc2/C1=C\c1cccc(/C=C2/C(=O)Nc3ccc(Br)cc32)n1` : reported CC50 = ? 63.1

---

TEST METHOD NOTES: Cytotoxicity against human breast cancer cells
Assay type: functional
CONDITION SET: Cancer cell lines, read-out: pTGI (converted)
READOUT: TGI

Entry `COc1ccc2c(c1)/C(=C\c1cccc(/C=C3/C(=O)Nc4ccc(OC)cc43)n1)C(=O)N2` : reported TGI = ? 14.8 µM

Entry `COc1cc2c(cc1C)NC(=O)/C2=C/c1cccc(/C=C2/C(=O)Nc3cc(C)c(OC)cc32)n1` : reported TGI = ? 93.3 µM

Entry `O=C1Nc2ccc(Br)cc2/C1=C\c1cccc(/C=C2/C(=O)Nc3ccc(Br)cc32)n1` : reported TGI = ? 18.2 µM

Entry `O=C1Nc2cccc(Cl)c2/C1=C\c1cccc(/C=C2/C(=O)Nc3cccc(Cl)c32)n1` : reported TGI = ? 3.31 µM

Entry `O=C1Nc2cc(Cl)ccc2/C1=C\c1cccc(/C=C2/C(=O)Nc3cc(Cl)ccc32)n1` : reported TGI = ? 13.5 µM

---

TEST METHOD NOTES: Cytotoxicity against human breast cancer cells
Type: functional
CONDITION SET: Cancer cell lines
READOUT: GI50 (µM)
All answers are understood in µM, so give the number only.

Entry `Cc1cc2c(cc1O)/C(=C\c1cccc(/C=C3/C(=O)Nc4cc(C)c(O)cc43)n1)C(=O)N2` : reported GI50 = ? 70.8

Entry `O=C1Nc2ccc(Cl)cc2/C1=C\c1cccc(/C=C2/C(=O)Nc3ccc(Cl)cc32)n1` : reported GI50 = ? 1.12

Entry `COc1cc2c(cc1C)NC(=O)/C2=C/c1cccc(/C=C2/C(=O)Nc3cc(C)c(OC)cc32)n1` : reported GI50 = ? 74.1

Entry `O=C1Nc2ccc(F)cc2/C1=C\c1cccc(/C=C2/C(=O)Nc3ccc(F)cc32)n1` : reported GI50 = ? 2.95

Entry `CC(=O)n1c(=O)/c(=C/c2c[nH]c3ccccc23)n(C(C)=O)c(=O)/c1=C/c1c[nH]c2ccccc12` : reported GI50 = ? 66.1

Entry `CN(C)c1ccc2c(c1)/C(=C\c1cccc(/C=C3/C(=O)Nc4ccc(N(C)C)cc43)n1)C(=O)N2` : reported GI50 = ? 6.03

Entry `COc1ccc2c(c1)/C(=C\c1cccc(/C=C3/C(=O)N(C)c4ccc(OC)cc43)n1)C(=O)N2C` : reported GI50 = ? 1.62

Entry `O=C1Nc2ccc(Br)cc2/C1=C\c1cccc(/C=C2/C(=O)Nc3ccc(Br)cc32)n1` : reported GI50 = ? 6.17

Entry `O=C1Nc2ccccc2/C1=c1/[nH]c(=O)/c(=C2/C(=O)Nc3ccccc32)[nH]c1=O` : reported GI50 = ? 85.1

Entry `O=C1Nc2ccccc2/C1=C\c1cccc(/C=C2/C(=O)Nc3ccccc32)n1` : reported GI50 = ? 0.49

Entry `O=C1Nc2cccc(Cl)c2/C1=C\c1cccc(/C=C2/C(=O)Nc3cccc(Cl)c32)n1` : reported GI50 = ? 0.389

---

Exercise: state measured CC50 for each of the molecules provided.
TEST METHOD NOTES: Cytotoxicity against human Non-small cell lung carcinoma cells
Assay type: functional
CONDITION SET: read-out: pLC50 (the source's name) (converted)
All answers are understood in µM, so give the number only.

Entry `O=C1Nc2ccccc2/C1=C\c1cccc(/C=C2/C(=O)Nc3ccccc32)n1` : reported CC50 = ? 22.4

Entry `O=C1Nc2cccc(Cl)c2/C1=C\c1cccc(/C=C2/C(=O)Nc3cccc(Cl)c32)n1` : reported CC50 = ? 34.7

Entry `O=C1Nc2cc(Cl)ccc2/C1=C\c1cccc(/C=C2/C(=O)Nc3cc(Cl)ccc32)n1` : reported CC50 = ? 57.5

---

TEST METHOD NOTES: Cytotoxicity against human ovarian cancer cells
Assay type: functional
CONDITION SET: Cancer cell lines, read-out: pTGI (converted)
READOUT: TGI (µM)
All answers are understood in µM, so give the number only.

Entry `CN1C(=O)/C(=C/c2cccc(/C=C3/C(=O)N(C)c4ccccc43)n2)c2ccccc21` : reported TGI = ? 29.5

Entry `COc1ccc2c(c1)/C(=C\c1cccc(/C=C3/C(=O)Nc4ccc(OC)cc43)n1)C(=O)N2` : reported TGI = ? 9.33

Entry `O=C1Nc2ccc(Cl)cc2/C1=C\c1cccc(/C=C2/C(=O)Nc3ccc(Cl)cc32)n1` : reported TGI = ? 4.17

Entry `O=C1Nc2cccc(Cl)c2/C1=C\c1cccc(/C=C2/C(=O)Nc3cccc(Cl)c32)n1` : reported TGI = ? 2.82

Entry `O=C1Nc2ccccc2/C1=C\c1cccc(/C=C2/C(=O)Nc3ccccc32)n1` : reported TGI = ? 1.78

Entry `O=C1Nc2ccc(Br)cc2/C1=C\c1cccc(/C=C2/C(=O)Nc3ccc(Br)cc32)n1` : reported TGI = ? 25.7

Entry `O=C1Nc2cc(Cl)ccc2/C1=C\c1cccc(/C=C2/C(=O)Nc3cc(Cl)ccc32)n1` : reported TGI = ? 19.5

---

TEST METHOD NOTES: Cytotoxicity against human melanoma cells
Format: functional
CONDITION SET: Melanoma cell
Structures can show the parent of a compound that is named as a salt.
Mark Met only for GI50 values smaller than 10 µM; exact matches and larger values are Not met.

# strict comparison: is reported GI50 < 10 µM? input = `O=C1Nc2ccc(S(=O)(=O)O)cc2/C1=C\c1cccc(/C=C2/C(=O)Nc3ccc(S(=O)(=O)O)cc32)n1` Not met

# strict comparison: is reported GI50 < 10 µM? input = `O=C1Nc2ccccc2/C1=C\c1cccc(/C=C2/C(=O)Nc3ccccc32)n1` Met

# strict comparison: is reported GI50 < 10 µM? input = CC[C@]1(O)C[C@H]2CN(CCc3c([nH]c4ccccc34)[C@@](C(=O)OC)(c3cc4c(cc3OC)N(C=O)[C@H]3[C@@](O)(C(=O)OC)[C@H](OC(C)=O)[C@]5(CC)C=CCN6CC[C@]43[C@@H]65)C2)C1 [VINCRISTINE SULFATE] Met

# strict comparison: is reported GI50 < 10 µM? input = `O=C1Nc2ccc(F)cc2/C1=C\c1cccc(/C=C2/C(=O)Nc3ccc(F)cc32)n1` Met

# strict comparison: is reported GI50 < 10 µM? input = `COc1ccc2c(c1)/C(=C\c1cccc(/C=C3/C(=O)Nc4ccc(OC)cc43)n1)C(=O)N2` Met

# strict comparison: is reported GI50 < 10 µM? input = `CN(C)c1ccc2c(c1)/C(=C\c1cccc(/C=C3/C(=O)Nc4ccc(N(C)C)cc43)n1)C(=O)N2` Met

# strict comparison: is reported GI50 < 10 µM? input = `COc1cc2c(cc1C)NC(=O)/C2=C/c1cccc(/C=C2/C(=O)Nc3cc(C)c(OC)cc32)n1` Not met

# strict comparison: is reported GI50 < 10 µM? input = `O=c1[nH]/c(=C\c2c[nH]c3ccccc23)c(=O)[nH]/c1=C\c1c[nH]c2ccccc12` Not met

# strict comparison: is reported GI50 < 10 µM? input = `Cc1cc2c(cc1O)/C(=C\c1cccc(/C=C3/C(=O)Nc4cc(C)c(O)cc43)n1)C(=O)N2` Not met

# strict comparison: is reported GI50 < 10 µM? input = `O=C1Nc2cc(Cl)ccc2/C1=C\c1cccc(/C=C2/C(=O)Nc3cc(Cl)ccc32)n1` Met

# strict comparison: is reported GI50 < 10 µM? input = `CN1C(=O)/C(=C/c2cccc(/C=C3/C(=O)N(C)c4ccccc43)n2)c2ccccc21` Met

# strict comparison: is reported GI50 < 10 µM? input = `O=C1Nc2cccc(Cl)c2/C1=C\c1cccc(/C=C2/C(=O)Nc3cccc(Cl)c32)n1` Met

# strict comparison: is reported GI50 < 10 µM? input = `CC(=O)n1c(=O)/c(=C/c2c[nH]c3ccccc23)n(C(C)=O)c(=O)/c1=C/c1c[nH]c2ccccc12` Not met

# strict comparison: is reported GI50 < 10 µM? input = `O=C1Nc2ccc(Cl)cc2/C1=C\c1cccc(/C=C2/C(=O)Nc3ccc(Cl)cc32)n1` Met

# strict comparison: is reported GI50 < 10 µM? input = `O=C1Nc2ccc(O)cc2/C1=C\c1cccc(/C=C2/C(=O)Nc3ccc(O)cc32)n1` Not met

# strict comparison: is reported GI50 < 10 µM? input = `COc1ccc2[nH]cc(/C=c3\[nH]c(=O)/c(=C/c4c[nH]c5ccc(OC)cc45)[nH]c3=O)c2c1` Not met

# strict comparison: is reported GI50 < 10 µM? input = `COc1ccc2c(c1)/C(=C\c1cccc(/C=C3/C(=O)N(C)c4ccc(OC)cc43)n1)C(=O)N2C` Met
